viability reference
experiment: reversal of MRP1-mediated doxorubicin resistance, pilot screen, H69AR cells, doxorubicin co-treatment (AID 601); conditions: H69AR cells, CellTiter-Glo, 72 h; compound alone cytotoxicity; at 10 µM

| compound | viability [%] |
| --- | --- |
| CCc1cc2c(CN3CCN(CCO)CC3)cc(=O)oc2cc1O | 92.6 |
| CC1(C(=O)CSc2nc3ccccc3s2)CCC(=O)O1 (stereo not drawn) | 90.1 |
| Cc1nc2ccc(NC(=O)N3CCOCC3)cc2s1 | 89.8 |

###

assay: reversal of MRP1-mediated doxorubicin resistance, pilot screen, H69AR cells, doxorubicin co-treatment (AID 601); details: H69AR cells + 2 uM doxorubicin, CellTiter-Glo, 72 h; at 10 µM; stronger effect = higher value
Square brackets hold non-standard residues; d marks the D form. Peptide text beside a SMILES is read from it. * marks the point of attachment. ξ: configuration not given here. Piv = CC(C)(C)C(=O)*; ξNva = CCCC(N)C(=O)O
measurement.kind: differential viability (reversal) (%)

| molecule | unit.abbreviation | reported.value |
| --- | --- | --- |
| CC1(C)CC(=O)C(C=Nc2ccc3c(c2)OCO3)=C(O)C1 | % | -27.7 |
| COc1ccc(NC(=O)CC2Oc3ccccc3NC2=O)cc1 (stereo not drawn) | % | 0.535 |
| Cc1cc(C(=O)N2CCN(c3ncccn3)CC2)cs1 | % | 11.2 |
| CCC1(c2ccc(F)cc2)NC(=O)N(CC(=O)c2ccc[nH]2)C1=O (stereo not drawn) | % | 9.76 |
| CCOc1ccc2cc(C#N)c(SCC(=O)N3CCOCC3)nc2c1 | % | 31.8 |
| O=S(=O)(c1ccccc1)c1nc(-c2ccco2)oc1NCCCN1CCOCC1 | % | -1.43 |
| COc1ccc(OC)c(NC(=O)CCN2CCC(C)CC2)c1 | % | -0.63 |
| COC(=O)CC1C(=O)NCCN1C(=O)NC1CCCCC1 (stereo not drawn) | % | 7.06 |
| O=C(Nc1ccccn1)NC(C(F)(F)F)C(F)(F)F | % | 2.58 |
| CCOc1cc(C2c3c(n[nH]c3C)C(=O)N2c2ccc(Br)cc2)ccc1O (stereo not drawn) | % | 9.98 |
| COc1ccccc1Nc1nc2ccccc2[nH]1 | % | -10.6 |
| CC1=C(C(=O)OC2CCCCC2)C(c2cccnc2)n2ncnc2N1 (stereo not drawn) | % | -8.64 |
| COc1ccc2c(c1)C(=NO)c1cc(OC)ccc1-2 | % | -6.16 |
| Brc1ccc(-c2csc(/N=C/N3CCOCC3)n2)cc1 | % | 5.1 |
| Cn1c(=O)c2c([nH]c(=O)n2C)n(C)c1=O | % | -5.03 |
| CC(C)C1Cc2c(C#N)c(N)sc(=S)c2CO1 (stereo not drawn) | % | -2.34 |
| CCOc1ccc(-n2cc(C(=O)Nc3cccc(C)n3)c3cc(OC)c(OC)cc3c2=O)cc1 | % | -11.8 |
| O=C(CCCC(=O)OCC(=O)NC1CCCC1)Nc1ccccn1 | % | -6.12 |
| Fc1ccc(NCc2nnc(SCc3nnc(-c4ccccc4)o3)n2CC2CCCO2)cc1 (stereo not drawn) | % | -18.4 |
| CC(Oc1ccccc1)C(=O)NC1CCN(Cc2ccccc2)CC1 (stereo not drawn) | % | 7.39 |
| Cc1ccc(C(c2sc3nc(C)nn3c2O)N2CC(C)OC(C)C2)cc1 (stereo not drawn) | % | 11.1 |
| Clc1ccc(Cl)c(-c2ccc(/C=N/c3ncn[nH]3)o2)c1 | % | -11.9 |
| CCN(CC)S(=O)(=O)c1ccc(Cl)c(C(=O)OC)c1 | % | 4.65 |
| COc1ccc(C(=O)Nc2ccc(C)cn2)c(OC)c1 | % | 11.2 |
| COc1ccc(CCNC(=O)c2cc(-c3cc(C)c(C)cc3O)n[nH]2)cc1OC | % | 1.53 |
| Cc1cc2nc(C3CCN(CC4COc5ccccc5O4)CC3)[nH]c2cc1C (stereo not drawn) | % | 22.7 |
| CCOc1ccccc1NC(=O)N1CCCC1C(=O)Nc1nnc(CC)s1 (stereo not drawn) | % | 20 |
| CCOC(=O)c1cnc(-n2cc(C)cn2)nc1Nc1ccccc1OC | % | -8.94 |
| CCCC(NC(=O)CNC(=O)C(C)(C)C)C(=O)O (stereo not drawn) (Piv-Gly-[ξNva]-OH) | % | 1.52 |
| COc1ccc2[nH]c(=O)c(CN(CC3CCCO3)C(=O)Nc3ccc(F)cc3)cc2c1 (stereo not drawn) | % | -8.38 |
| N#C/C(C(=O)N1CCOCC1)=C1/SC(Cc2ccccc2)C(=O)N1c1ccccc1 (stereo not drawn) | % | -3.21 |
| O=C(O)c1cccc(CN2C(=O)SC(Nc3ccccc3)C2=O)c1 (stereo not drawn) | % | 8.78 |
| CC(=O)Nc1c(-c2ccc(F)cc2)nc2ccccn12 | % | -19.5 |
| N#Cc1cn(CC(=O)N2CCCC2)c2ccccc12 | % | 8.44 |
| Cc1cc2c(nn1)CCC/C2=N\O | % | 3.77 |
| C=CCn1c(-c2ccccc2)c[nH]c1=S | % | 22.4 |
| C=CCn1c(=O)[nH]c2cc(C(=O)N3CCN(c4cc(C)ccc4C)CC3)ccc2c1=O | % | 7.67 |
| CCOC(=O)c1ccc2nc(C)c3c(c2c1)OC(C)C3 (stereo not drawn) | % | 11 |

###

assay: reducers of endogenous Her2 protein level, primary screen, SKBR3 breast tumor cells, AlphaScreen, ATP viability (AID 461); settings: 18-24 h, measured here: SKBR3 viability, ATP luminescence, at 10 µM;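 also: percent of carrier control wells set as 100% viability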

| compound | unit.abbreviation | viability |
| --- | --- | --- |
| Cc1cc(C)nc(N2CCCC(C(=O)Nc3ccc4c(c3)OCO4)C2)n1 (stereo not given) | % | 93 |
| O=C(COc1ccc(F)cc1Br)N1CCc2ccccc21 | % | 97.5 |
| C=CCNC(=O)c1cccc(Br)c1 | % | 92 |
| Nn1c(SCC(=O)Nc2ccc3c(c2)OCO3)nnc1C1CC1 | % | 102 |
| CCN(CC)c1ccc(-c2nn3c(-c4cccnc4)nnc3s2)cc1 | % | 91.5 |

###

assay: reversal of MRP1-mediated doxorubicin resistance, pilot screen, H69AR cells, doxorubicin co-treatment (AID 601); conditions: H69AR cells, CellTiter-Glo, 72 h; compound alone cytotoxicity; at 10 µM
In this section, each of the compounds is paired with its reported viability.

| compound | viability, % |
| --- | --- |
| O=C(CN1CCOCC1)N1CCN(C(=O)CN2CCOCC2)CC1 | 104 |
| Cc1cccn2c(=O)c3cc(C#N)c(=O)n(CCCN4CCOCC4)c3nc12 | 102 |
| CCOC(=O)c1cn(CC)c2cc(N3CCOCC3)c(F)cc2c1=O | 90.8 |
| CC(C)c1ccc(S(=O)(=O)N2CCN(C(=O)c3cccc(F)c3)CC2)cc1 | 88.3 |
| COc1ccc(Cn2nnnc2C(c2ccccc2OC)N2CCC(C(N)=O)CC2)cc1 (stereo not drawn) | 85.4 |
| COc1ccc2nc(C)cc(N3CCOCC3)c2c1 | 93.1 |
| Cc1ccc(NC(=O)CSc2nnc(CSc3nc(C)cc(C)n3)n2Cc2ccco2)c(C)c1 | 80.8 |
| CC1CCCCC1NC(=O)c1ccc(N2CCCC2=O)cc1 (stereo not drawn) | 90.3 |
| Cc1cccn2c(=O)c3cc(C(=O)N4CCCc5ccccc54)n(C)c3nc12 | 90.2 |
| COc1ccc(NC2c3ncccc3C(=O)N2Cc2ccccc2)c(OC)c1 (stereo not drawn) | 95.8 |
| C=Cn1c(C(=O)O)cc(CC)c1-c1ccccc1 | 106 |
| Cn1c(SCC(=O)N2CCN(c3cccc(Cl)c3)CC2)nnc1-c1ccncc1 | 79.8 |
| CCCCCc1c(O)nc(SCC(=O)NCC2CCCO2)[nH]c1=O (stereo not drawn) | 105 |
| O=C(C1CC1)N1CCc2cc(S(=O)(=O)N(CCO)Cc3ccccc3)ccc21 | 98.8 |
| O=C(OCCCN1CCCC1)C1(c2ccccc2)CCCC1 | 88.6 |
| O=C(Nc1ccc2c(c1)OCO2)c1cc2ncc(Br)cn2n1 | 86.8 |
| Fc1ccc(Cn2nnc(-c3ccc(CN4CCOCC4)cc3)n2)cc1 | 103 |
| COc1ccc(S(=O)(=O)N2CCOCC2)cc1C(=O)Nc1cc(C)on1 | 93.9 |

###

Parameter viability: see the listing below.
test: reducers of endogenous Her2 protein level, primary screen, SKBR3 breast tumor cells, AlphaScreen, ATP viability (AID 461); conditions: 18-24 h, measured here: SKBR3 viability, ATP luminescence, at 10 µM;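 also: percent of carrier control wells set as 100% viability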

| compound | viability [%] |
| --- | --- |
| CCN(CC)c1ccc(/C=N/n2nnnc2N)c(O)c1 | 119 |
| CCC(=O)N1CCc2cc(Br)cc(S(=O)(=O)CCC(=O)NCC3CCCO3)c21 (stereo unspecified) | 118 |
| Cn1cnnc1SCC(=O)Nc1sc2c(c1C#N)CCCCC2 | 86 |
| CNC(=O)c1ccc(N(Cc2ccccc2C)S(C)(=O)=O)cc1 | 98 |
| COc1ccccc1N1CC(C(=O)Nc2cccc(C(=O)O)c2)CC1=O (stereo unspecified) | 98 |
| C/C(N)=C(/C#N)C(=O)CSc1nnc(Nc2c(C)cccc2C)s1 | 108 |
